biological target: recombinant soluble homotrimeric HA of A/Anhui/1/05 (H5N1) (Influenza A virus A/Anhui/1/2005 (H5N1)); experiment: HA microarray, BCC supernatant; settings: remark: other sources report otherwise
# Lookup of reported Trimeric HA Binding RLU keyed by entry
Enter your answer as a number in RLU; do not include the unit.

* TCN-534 (5249_B02) (antibody, V domains shown) VH: QVQLVQSGAEVKKPGSSVKVSCRESGGTFNGYTITWVRQAPGQGLEWMGGIIPMMGTVNYAQKLQGRVTITTDYFTKTAYMDLNNLRSEDTAMYYCVKIRYTGQQLLWGQGTLVTVSS VL: DIQMTQSPSTLSASIGDRVTITCRASQSIASWLAWYQQKPGKAPKLLIYEAVNLESGVPSRFSGSGSGTDFTLTISSLQPDDFATYFCQHYGTISQTFGGGTKVEIK | 6860
* TCN-523 (5248_A17) (antibody, V domains shown) VH: QVQLVQSGAEVKKPGSSVKVSCKASGGSFSNYAFSWVRQAPGQGLEWMGGTIPLLGTTNYAQKFQGRVTISADQFTSTAYMELGSLRSEDTAVYYCTRRKMTTAFDSWGQGTLVTVSS VL: QPVLTQPPSASASLGASVTLTCTLSSAYSNYKVDWYQQRPGKGPRFVMRVGTGGIVGSKGDGIPDRFSVLGSGLNRYLTIKNIQEEDESDYHCGADHGSGSNFVSPYVFGGGTKLTVL | 5700
* TCN-550 (5096_F06) (antibody, V domains shown) VH: QVQLQESGPGLVKPSETLSLTCTVSGASINSHYWSWIRQPPGKGLEWIGYVYYSGSTTYNPSLKSRVTLSVDTSKNQFSLNLSSVTAADTAFYYCARHPYDVLTGSGDWFDPWGQGTLVTVSS VL: SYVLTQAPSVSVAPGQTARITCGGNAIGSKKVHWYQHKAGQAPVLVVYDDTDRPSGIPERFSGSNSWSTATLTINRVEAGDEADYYCQVWDFTIDHVVFGGGTKLTVL | 1210
* TCN-535 (5246_P19) (antibody, V domains shown) VH: QVQLVQSGSEVKKPGTSVKVSCTASGSVFTNYGISWVRQAPGQGLEWMGGIIPLFGAAKYAQKFQGRVTITADESTKTVYMELSRLTSKDTAIYFCAKAPRVYEYYFDQWGQGTPVTVSS VL: EIVLTQSPGTLSLSPGERATLSCRASQSVSSSQLAWYQQKPGQAPRLIIYGASTRATGIPDRFSGSGSGTDFTLTIGRLEPEDFAVFFCQQYSTSPPTFGQGTKVDFK | 6880
* TCN-533 (5256_A17) (antibody, V domains shown) VH: QVQLVQSGADVKKPGSSVTVSCKASGGSFSNYGINWVRQAPGQGLEWMGGIIPLINAPNYAPKFQGRVTITADMFSNIVSLQLTSLRTDDTAVYYCARRKMTTAIDYWGQGTLVTVSS VL: QPVLSQPPSASASLGASVTLTCTLSSGFDNYQVAWYQQRPGKGPRFVMRVGNGGNVASKGDGIPDRFSVSGSGLNRYLTIKNIQEDDESDYYCGADHGSGNNFVSPYVFGGGTKLTVL | 8060

Input line: Suppose we examine the binder TCN-530 (5248_H10a) (antibody, V domains shown) VH: QVQLVQSGAEVRKPGSSVKVSCKASGGPFMSYAIGWVRQAPGQGLEWMGGINPVFGRPHYAQKFQGRVTIATDDSTKTSYMELSSLTSEDTGMYYCASRYSRSSPGTFESWGQGTLVTVSS VL: EIVMTQFPATLSVSPGERVTLSCRASQSVSNNLAWYQQKPGQPPRLLIYDASTRATGVPAKFSGTGSGTEFTLSISSLQSEDFAVYYCQQYHNWPPSYSFGLGTKLEIK ; what Trimeric HA Binding RLU value has been reported?
Output line: 11900

Input line: Item under review: TCN-557 (5081_A04) (antibody, V domains shown) VH: QVQLVQSGAEVKKPGASVKVSCKASGHTFTGYYIHWVRQAPGQGLEWMGWINPDSGATSSAQNFQGRVTMTGDTSSSTAYMELSRLSFDDTAVYYCARVLFTSPFDFWGEGTLVTVSS VL: QAVVTQEPSLAVSPGGTVTLTCGSSTGAVTRGHYPYWFQQKPGQAPRALIYDSAGNRHSWTPARFSGSLLGGKAALTLSGAQPEDEAEYYCLLSYSGVWVFGGGTKLTVL . Reported Trimeric HA Binding RLU?
Output line: 46000

Input line: I'd like to know its Trimeric HA Binding RLU. The binder in question is TCN-551 (5243_D01) (antibody, V domains shown) VH: EVQLVQSGSEVKKPGESLKISCKGSGYSFSNYWIGWVRHMPGKGLEWMGIIYPGDSDTRYSPSFQGQVTMSADKSSSTVYLQWSSLKASDTAIYYCARRGGHSFGYGSGGDTHSEFDSWGQGTLVTVSS VL: QSVLTQSPSVSAAPGQKVTISCSGSDSNIGDYFVCWYQHLPGKPPQLLIYENNKRPSGIPDRFSGSKSGTSATLGITGIQTGDEADYYCATWDGSLSAWVFGGGTKLTVL
Output line: 4190

Input line: Look up Trimeric HA Binding RLU: TCN-555 (5246_L16) (antibody, V domains shown) VH: QVQLVQSGAEVKRPGSSVKVSCTASGGIFRKNAISWVRQAPGQGLEWMGGIIAVFNTANYAQKFQNRVKITADESGNTAYMELSSLTSDDTAVYYCASHPKYFYGSGSYPDFWGQGTLVTVSS VL: QSALTQPRSVSGSPGQSITISCTGGSSDIGASNSVSWYQQHPGKAPKLVIFDVTERPSGVPHRFSGSKSGNTASLTVSGLQPDDEADYFCCAYGGKYLVVFGGGTKVTVL
Output line: 1500

Input line: Requested field: Trimeric HA Binding RLU. Item: TCN-528 (5087_P17) (antibody, V domains shown) VH: QVQLVQSGSEVKKPGASVKVSCKASGYTFTNYDINWIRQAPGQGLEWMGWINPNSGTTGSAQRFQGRVTITVDTSITTVYMELSSLRSDDTAIYYCARGRELLRLQHFLTDSQSERRDCFDPWGQGTLVTVSS VL: DIQMTQSPSSLSASVGDRVTITCRANQDIGIYLNWYQQNPGKVPKLLLHGASSLQGGVPSRFSASGSGTDFTLTIHSLQPEDLATYYCQQSRRLPYTFGQGTRVELK
Output line: 49800
